# Target System: T1, formyl peptide receptor 2 (FPR2) (UniProt P25090 1-351, limits assumed)
# T1 sequence (looked up): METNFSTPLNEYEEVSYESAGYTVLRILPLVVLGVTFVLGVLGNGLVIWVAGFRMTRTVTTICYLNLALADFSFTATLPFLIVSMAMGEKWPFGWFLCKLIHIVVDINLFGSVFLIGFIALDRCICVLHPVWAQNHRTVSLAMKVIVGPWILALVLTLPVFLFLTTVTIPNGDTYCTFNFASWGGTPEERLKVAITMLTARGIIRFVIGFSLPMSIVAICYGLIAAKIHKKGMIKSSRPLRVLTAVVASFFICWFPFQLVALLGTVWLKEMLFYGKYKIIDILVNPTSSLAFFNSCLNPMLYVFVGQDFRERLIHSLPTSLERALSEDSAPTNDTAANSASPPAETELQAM
# Test Description: cell-based or functional assay
Measured Quantity: EC50 for [Ca2+]

Sample records with EC50 for [Ca2+]:
{"columns": ["Binder", "Measured Quantity", "Value"],
 "data": [
  ["MRYWYM (HELM PEPTIDE1{[ac].M.R.Y.W.Y.[dM].[am]}$$$$V2.0; SMILES CSCC[C@H](NC(C)=O)C(=O)N[C@@H](CCCNC(=N)N)C(=O)N[C@@H](Cc1ccc(O)cc1)C(=O)N[C@@H](Cc1c[nH]c2ccccc12)C(=O)N[C@@H](Cc1ccc(O)cc1)C(=O)N[C@H](CCSC)C(N)=O) [peptide of SEQ ID NO 86]", "EC50 for [Ca2+]", "< 10 nM"],
  ["RMRYWPM (HELM PEPTIDE1{[CCCC(=O)[*:2]].R.M.R.Y.W.P.[dM].[am]}$$$$V2.0; SMILES CCCC(=O)N[C@@H](CCCNC(=N)N)C(=O)N[C@@H](CCSC)C(=O)N[C@@H](CCCNC(=N)N)C(=O)N[C@@H](Cc1ccc(O)cc1)C(=O)N[C@@H](Cc1c[nH]c2ccccc12)C(=O)N1CCC[C@H]1C(=O)N[C@H](CCSC)C(N)=O) [peptide of SEQ ID NO 108]", "EC50 for [Ca2+]", "< 10 nM"]
]}

In: May I ask what EC50 for [Ca2+] has been recorded for PMRYKPM (HELM PEPTIDE1{[ac].P.M.R.Y.K.P.[dM].[am]}$$$$V2.0; SMILES CSCC[C@H](NC(=O)[C@@H]1CCCN1C(C)=O)C(=O)N[C@@H](CCCNC(=N)N)C(=O)N[C@@H](Cc1ccc(O)cc1)C(=O)N[C@@H](CCCCN)C(=O)N1CCC[C@H]1C(=O)N[C@H](CCSC)C(N)=O) [peptide of SEQ ID NO 63] ?
Out: < 10 nM
